- test system: BRG-1 (Homo sapiens, UniProt P51532)
- Construct: made in house; host or cells: High Five insect cells
- Sequence (P51532 whole entry): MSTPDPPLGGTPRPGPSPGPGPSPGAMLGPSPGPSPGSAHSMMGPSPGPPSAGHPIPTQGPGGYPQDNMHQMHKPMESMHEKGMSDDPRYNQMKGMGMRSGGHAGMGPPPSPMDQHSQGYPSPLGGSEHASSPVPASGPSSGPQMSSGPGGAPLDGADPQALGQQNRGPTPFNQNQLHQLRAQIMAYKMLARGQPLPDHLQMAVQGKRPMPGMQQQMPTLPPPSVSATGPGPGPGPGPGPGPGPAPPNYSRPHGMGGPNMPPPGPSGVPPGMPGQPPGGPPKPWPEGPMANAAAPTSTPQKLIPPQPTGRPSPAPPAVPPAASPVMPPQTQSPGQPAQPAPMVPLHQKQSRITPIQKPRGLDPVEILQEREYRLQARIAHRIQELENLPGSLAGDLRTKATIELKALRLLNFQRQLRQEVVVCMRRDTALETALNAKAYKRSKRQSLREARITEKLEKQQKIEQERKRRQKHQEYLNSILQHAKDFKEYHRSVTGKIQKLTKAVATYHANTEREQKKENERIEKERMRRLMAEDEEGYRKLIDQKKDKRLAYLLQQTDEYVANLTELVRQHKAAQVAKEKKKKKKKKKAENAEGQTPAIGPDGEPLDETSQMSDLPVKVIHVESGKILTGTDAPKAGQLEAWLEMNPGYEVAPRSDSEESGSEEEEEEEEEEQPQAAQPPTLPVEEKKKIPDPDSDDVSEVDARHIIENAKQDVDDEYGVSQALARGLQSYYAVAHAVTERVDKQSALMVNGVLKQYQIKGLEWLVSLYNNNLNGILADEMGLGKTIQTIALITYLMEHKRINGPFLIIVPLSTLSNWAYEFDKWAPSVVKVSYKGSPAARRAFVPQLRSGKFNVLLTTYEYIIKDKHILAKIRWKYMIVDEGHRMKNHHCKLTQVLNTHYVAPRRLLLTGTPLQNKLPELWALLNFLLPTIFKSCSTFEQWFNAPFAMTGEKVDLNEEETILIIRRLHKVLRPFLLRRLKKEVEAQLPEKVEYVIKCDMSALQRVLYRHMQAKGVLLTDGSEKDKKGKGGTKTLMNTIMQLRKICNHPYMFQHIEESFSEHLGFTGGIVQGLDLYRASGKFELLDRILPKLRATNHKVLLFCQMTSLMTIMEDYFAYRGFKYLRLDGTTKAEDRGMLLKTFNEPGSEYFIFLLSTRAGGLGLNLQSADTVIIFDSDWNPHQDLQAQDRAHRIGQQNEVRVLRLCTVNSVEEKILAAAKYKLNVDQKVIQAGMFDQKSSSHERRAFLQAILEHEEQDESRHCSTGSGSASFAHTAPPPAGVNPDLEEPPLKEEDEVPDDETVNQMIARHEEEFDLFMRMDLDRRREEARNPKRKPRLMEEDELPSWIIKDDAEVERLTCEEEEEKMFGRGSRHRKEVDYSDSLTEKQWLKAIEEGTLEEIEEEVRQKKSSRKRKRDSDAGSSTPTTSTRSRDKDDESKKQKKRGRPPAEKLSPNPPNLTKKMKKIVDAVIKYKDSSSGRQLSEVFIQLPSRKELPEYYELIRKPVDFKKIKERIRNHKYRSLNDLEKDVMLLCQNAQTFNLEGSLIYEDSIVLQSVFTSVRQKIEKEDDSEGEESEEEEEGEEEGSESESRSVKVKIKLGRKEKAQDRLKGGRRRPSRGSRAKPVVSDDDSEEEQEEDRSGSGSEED
- test details: ATPase catalytic activity of BRG-1, ADP-Glo in vitro biochemical assay
- condition info: ATPase catalytic activity, ADP-Glo; 30 nM BRG-1, 400 μM ATP; read-out: BRG1 IC50
Sorting guide: entries reporting IC50 beneath 200 nM go in the Y pile, the rest go in the N pile.

Asked: Problem: For the molecule CC1CCc2ccc(-c3ccc4cnc(CNC(=O)c5ccc6c(c5)S(=O)(=O)CCOC6)cc4n3)nc2N1C (stereo not drawn) [Compound 414] , is IC50 under 200 nM?
Given back: Y

Asked: API: query returns whether the molecule falls strictly under 200 nM in IC50. Query: CO[C@H]1CCN(c2cccc(-c3ccc4cnc(CNC(=O)c5ccc6c(c5)S(=O)(=O)CCOC6)cc4n3)n2)C[C@@H]1C [Compound 352]
Given back: N

Asked: Given the entry O=C(NCc1cc2nc(-c3cncc(C4CC4)n3)ccc2cn1)c1cnc2c(c1)S(=O)(=O)CCCC2(F)F [Compound 434] , would its reported IC50 be below 200 nM?
Given back: N

Asked: Record CCN(C[C@H](C)OC)c1cccc(-c2ccc3cnc(CNC(=O)c4ccc5c(c4)S(=O)(=O)CCOC5)cc3n2)n1 [Compound 345] : is its IC50 strictly below 200 nM?
Given back: N

Asked: Please let me know if COc1cccc(-c2ccc3cnc(CNC(=O)c4ccc5c(c4)S(=O)(=O)CCOC5)cc3n2)n1 [Compound 487] shows IC50 below 200 nM.
Given back: N

Asked: Field: below-cutoff. Rule: recorded IC50 strictly less than 200 nM. Subject: N#Cc1ccc2c(c1)N(c1ccc3cnc(CNC(=O)c4ccc5c(c4)S(=O)(=O)CCOC5)cc3n1)CCC2 [Compound 558]
Given back: Y

Asked: Lab log: compare recorded IC50 with 200 nM; is it strictly lower for COc1ccc2c(n1)N(c1ccc3cnc(CNC(=O)c4ccc5c(c4)S(=O)(=O)CCOC5)cc3n1)CCC2 [Compound 568] ?
Given back: N

Asked: IC50 strictly < 200 nM for this molecule? CC1COCc2ccc(C(=O)NCc3cc4nc(N5CCOc6cccnc65)ccc4cn3)cc2S1(=O)=O (stereo not drawn) [Compound 523]
Given back: Y

Asked: I wonder whether CC(F)(F)c1ccc2c(c1)N(c1ccc3cnc(CNC(=O)c4ccc5c(c4)S(=O)(=O)CCOC5)cc3n1)CCO2 [Compound 682] has IC50 below 200 nM. Can you tell?
Given back: Y

Asked: # check: IC50 < 200 nM for COc1ccc2c(c1)OCCN2c1ccc2cnc(CNC(=O)c3ccc4c(c3)S(=O)(=O)CCOC4)cc2n1 [Compound 548]
Given back: Y

---
Asked: Dear reviewer, please state whether O=C(NCc1cc2nc(N3CCCc4ccc(OC5COC5)cc43)ccc2cn1)c1ccc2c(c1)S(=O)(=O)CCOC2 [Compound 692] has IC50 strictly beneath 200 nM.
Given back: Y

Asked: # strict comparison: is reported IC50 < 200 nM? input = C[C@@H]1CN(c2cccc(-c3ccc4cnc(CNC(=O)c5ccc6c(c5)S(=O)(=O)CC[C@H]6C)cc4n3)n2)C[C@H](C)O1 [Compound 490]
Given back: N

Asked: Strictly below 200 nM: is that where IC50 of C[C@@H]1CN(c2cccc(-c3ccc4cnc(CNC(=O)c5ccc6c(c5)S(=O)(=O)CC[C@@H](C(F)F)O6)cc4n3)n2)C[C@H](C)O1 [Compound 581] sits?
Given back: N

Source of measurements: patent US20230416248A1
